Details: in cyclohexane, 288.15 K
Property Measured: solubility (mole fraction)

- CC[C@@H](C(N)=O)N1CCCC1=O: 1.92e-05

====

Conditions: in acetone, 288.15 K
Property Measured: solubility (mole fraction)

• CC[C@@H](C(N)=O)N1CCCC1=O = 0.00887

====

Settings: in acetone, 303.15 K
Property Measured: solubility (mole fraction)

* CC[C@@H](C(N)=O)N1CCCC1=O | 0.0175

====

Settings: in ethanol, 298.15 K
Property Measured: solubility (mole fraction)

* CC[C@@H](C(N)=O)N1CCCC1=O | 0.0643

====

Details: in acetonitrile, 293.15 K
Property Measured: solubility (mole fraction)

• CC[C@@H](C(N)=O)N1CCCC1=O = 0.0137

====

Settings: in ethyl acetate, 303.15 K
Property Measured: solubility (mole fraction)

- CC[C@@H](C(N)=O)N1CCCC1=O: 0.0104

====

Settings: in ethanol, 293.15 K
Property Measured: solubility (mole fraction)

• CC[C@@H](C(N)=O)N1CCCC1=O = 0.0546

====

Conditions: in acetonitrile, 283.15 K
Property Measured: solubility (mole fraction)

• CC[C@@H](C(N)=O)N1CCCC1=O = 0.00909

====

Details: in toluene, 313.15 K
Property Measured: solubility (mole fraction)

* CC[C@@H](C(N)=O)N1CCCC1=O | 0.00699

====

Details: in ethanol, 323.15 K
Property Measured: solubility (mole fraction)

• CC[C@@H](C(N)=O)N1CCCC1=O = 0.138

====

Settings: in acetonitrile, 313.15 K
Property Measured: solubility (mole fraction)

* CC[C@@H](C(N)=O)N1CCCC1=O | 0.0292

====

Settings: in methanol, 293.15 K
Property Measured: solubility (mole fraction)

* CC[C@@H](C(N)=O)N1CCCC1=O | 0.115

====

Conditions: in n-propanol, 323.15 K
Property Measured: solubility (mole fraction)

• CC[C@@H](C(N)=O)N1CCCC1=O = 0.0729

====

Conditions: in acetone, 308.15 K
Property Measured: solubility (mole fraction)

* CC[C@@H](C(N)=O)N1CCCC1=O | 0.0217

====

Details: in 1,4-dioxane, 288.15 K
Property Measured: solubility (mole fraction)

* CC[C@@H](C(N)=O)N1CCCC1=O | 0.00718

====

Conditions: in toluene, 298.15 K
Property Measured: solubility (mole fraction)

- CC[C@@H](C(N)=O)N1CCCC1=O: 0.00299

====

Conditions: in n-propanol, 308.15 K
Property Measured: solubility (mole fraction)

- CC[C@@H](C(N)=O)N1CCCC1=O: 0.0434

====

Details: in acetone, 323.15 K
Property Measured: solubility (mole fraction)

• CC[C@@H](C(N)=O)N1CCCC1=O = 0.0405

====

Settings: in toluene, 293.15 K
Property Measured: solubility (mole fraction)

* CC[C@@H](C(N)=O)N1CCCC1=O | 0.0022

====

Conditions: in ethanol, 308.15 K
Property Measured: solubility (mole fraction)

- CC[C@@H](C(N)=O)N1CCCC1=O: 0.0885

====

Settings: in isopropanol, 288.15 K
Property Measured: solubility (mole fraction)

• CC[C@@H](C(N)=O)N1CCCC1=O = 0.0147

====

Conditions: in acetone, 283.15 K
Property Measured: solubility (mole fraction)

• CC[C@@H](C(N)=O)N1CCCC1=O = 0.00698

====

Conditions: in methanol, 313.15 K
Property Measured: solubility (mole fraction)

* CC[C@@H](C(N)=O)N1CCCC1=O | 0.209

====

Details: in acetonitrile, 318.15 K
Property Measured: solubility (mole fraction)

• CC[C@@H](C(N)=O)N1CCCC1=O = 0.035

====

Settings: in n-propanol, 283.15 K
Property Measured: solubility (mole fraction)

* CC[C@@H](C(N)=O)N1CCCC1=O | 0.0167

====

Details: in 1,4-dioxane, 298.15 K
Property Measured: solubility (mole fraction)

- CC[C@@H](C(N)=O)N1CCCC1=O: 0.0112

====

Settings: in ethyl acetate, 308.15 K
Property Measured: solubility (mole fraction)

- CC[C@@H](C(N)=O)N1CCCC1=O: 0.0129

====

Details: in toluene, 288.15 K
Property Measured: solubility (mole fraction)

- CC[C@@H](C(N)=O)N1CCCC1=O: 0.00167

====

Settings: in isopropanol, 313.15 K
Property Measured: solubility (mole fraction)

- CC[C@@H](C(N)=O)N1CCCC1=O: 0.0435

====

Details: in isopropanol, 293.15 K
Property Measured: solubility (mole fraction)

- CC[C@@H](C(N)=O)N1CCCC1=O: 0.0185

====

Conditions: in ethyl acetate, 313.15 K
Property Measured: solubility (mole fraction)

- CC[C@@H](C(N)=O)N1CCCC1=O: 0.0158

====

Conditions: in cyclohexane, 293.15 K
Property Measured: solubility (mole fraction)

- CC[C@@H](C(N)=O)N1CCCC1=O: 2.61e-05

====

Conditions: in acetonitrile, 288.15 K
Property Measured: solubility (mole fraction)

- CC[C@@H](C(N)=O)N1CCCC1=O: 0.0113

====

Conditions: in toluene, 283.15 K
Property Measured: solubility (mole fraction)

• CC[C@@H](C(N)=O)N1CCCC1=O = 0.00122

====

Conditions: in n-propanol, 293.15 K
Property Measured: solubility (mole fraction)

- CC[C@@H](C(N)=O)N1CCCC1=O: 0.0252

====

Details: in toluene, 308.15 K
Property Measured: solubility (mole fraction)

* CC[C@@H](C(N)=O)N1CCCC1=O | 0.00524

====

Conditions: in ethyl acetate, 323.15 K
Property Measured: solubility (mole fraction)

• CC[C@@H](C(N)=O)N1CCCC1=O = 0.0236

====

Conditions: in n-propanol, 313.15 K
Property Measured: solubility (mole fraction)

* CC[C@@H](C(N)=O)N1CCCC1=O | 0.052

====

Settings: in methanol, 303.15 K
Property Measured: solubility (mole fraction)

* CC[C@@H](C(N)=O)N1CCCC1=O | 0.158

====

Details: in cyclohexane, 323.15 K
Property Measured: solubility (mole fraction)

* CC[C@@H](C(N)=O)N1CCCC1=O | 0.00016

====

Details: in ethyl acetate, 288.15 K
Property Measured: solubility (mole fraction)

• CC[C@@H](C(N)=O)N1CCCC1=O = 0.00539

====

Conditions: in isopropanol, 298.15 K
Property Measured: solubility (mole fraction)

* CC[C@@H](C(N)=O)N1CCCC1=O | 0.0229
